biological target: T1, HLA-A*02:01 (human); test: UV peptide exchange ELISA (anti-b2m); yield grade: + >10%, ++ >20%, +++ >50, ++++ >75%
T1 construct: captured on streptavidin plates; also called peptide-receptive MHC molecules
READOUT LABEL: peptide exchange yield

BINDER: VISPHGIASV
RESULT: > 75%
//
BINDER: VLFKDPVSV
RESULT: > 75%
//
BINDER: QIDSIHLLL
RESULT: 50 to 75%
//
BINDER: FLLEQEKTQAL
RESULT: > 75%
//
BINDER: AIHTAILTL
RESULT: 20 to 50%
